tested on: factor Xa (Homo sapiens)
Sequence (P00742 235-488 limits assumed): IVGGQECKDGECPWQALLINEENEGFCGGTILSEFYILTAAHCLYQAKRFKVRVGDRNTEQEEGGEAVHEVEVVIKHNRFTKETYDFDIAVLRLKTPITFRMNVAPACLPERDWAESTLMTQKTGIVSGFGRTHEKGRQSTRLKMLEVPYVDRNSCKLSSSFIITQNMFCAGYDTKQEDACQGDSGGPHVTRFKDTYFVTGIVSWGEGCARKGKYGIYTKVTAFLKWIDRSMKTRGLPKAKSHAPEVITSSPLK
Sequence (P00742 41-179 limits assumed): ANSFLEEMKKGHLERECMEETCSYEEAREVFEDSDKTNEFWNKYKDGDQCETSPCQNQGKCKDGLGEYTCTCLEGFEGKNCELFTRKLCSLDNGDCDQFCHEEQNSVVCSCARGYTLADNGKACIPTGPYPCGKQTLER
assay details: Antifactor Xa
property measured: pEC50
Please report pEC50 as the negative decimal logarithm of the molar concentration, giving only the number.

# pEC50 lookup, item CS(=O)(=O)O.O=C(NC[C@H]1CN(c2ccc(N3CCNC=N3)cc2)C(=O)O1)c1ccc(Cl)s1 [GCC‐4401C]
5.87

---

tested on: factor X (Homo sapiens, UniProt P00742)
assay details: Factor X chromogenic activity assay
property measured: EC50
Kindly format the answer as number then unit.

# EC50 lookup, item CS(=O)(=O)O.O=C(NC[C@H]1CN(c2ccc(N3CCNC=N3)cc2)C(=O)O1)c1ccc(Cl)s1 [GCC‐4401C]
814 nM
